# test-description: Metabolic stability of the compound in Sprague-Dawley rat brain assessed as compound remaining at 37 MBq, iv measured after 15 mins
# Assay type: ADME, organism-based
# experimental-parameters: read-out: Stability
measured-metric: remaining at 0.25 h

**Query** Find the recorded remaining at 0.25 h belonging to [11CH3]Oc1ncccc1-c1cccc2c(N)c3c(nc12)CN(C1CCC1)C3=O and report it.
**Result** > 99%

====

# test-description: Biodistribution in Sprague-Dawley rat hippocampus pretreated with unlabeled compound at 0.1 mg/kg, ip administered 30 mins before labeled compound treatment at 37 MBq, iv measured 15 mins post injection (reference value: 0.22 +/- 0.22 %ID/g)
# Format: ADME, organism-based
# Design: dose 0.1 mg/kg
# experimental-parameters: read-out: Drug uptake
measured-metric: tissue uptake at 0.25 h (%ID/g)
State just the number; it will be interpreted in %ID/g.

**Query** Find the recorded tissue uptake at 0.25 h belonging to [11CH3]Oc1ncccc1-c1cccc2c(N)c3c(nc12)CN(C1CCC1)C3=O and report it.
**Result** 0.17

====

# test-description: Biodistribution in Sprague-Dawley rat blood pretreated with unlabeled compound at 10 mg/kg, ip administered 30 mins before labeled compound treatment at 37 MBq, iv measured 15 mins post injection (0.11 +/- 0.01 %ID/g)
# Assay type: ADME, organism-based
# Parameters: dose 10 mg/kg
# experimental-parameters: read-out: Drug uptake
measured-metric: tissue uptake at 0.25 h
Dear colleague, please send the value followed by its unit.

**Query** Find the recorded tissue uptake at 0.25 h belonging to [11CH3]Oc1ncccc1-c1cccc2c(N)c3c(nc12)CN(C1CCC1)C3=O and report it.
**Result** 0.12 %ID/g

====

# test-description: Lipophilicity, log D in octanol/buffer at pH 7.4 by shake-flask method
measured-metric: logD
I'd appreciate a reply containing only the number, no unit.

**Query** Find the recorded logD belonging to Cc1nc(O[11CH3])ccc1-c1cccc2c(N)c3c(nc12)CN(C1CCC1)C3=O and report it.
**Result** 4.12

**Query** Find the recorded logD belonging to CC(NCCC(c1ccccc1)c1ccccc1)c1ccc(O[11CH3])c(Cl)c1 (racemic) and report it.
**Result** 3.2

====

# test-description: Biodistribution in Sprague-Dawley rat striatum pretreated with unlabeled compound at 5 mg/kg, ip administered 30 mins before labeled compound treatment at 37 MBq, iv measured 15 mins post injection (reference value: 0.13 +/- 0.22 %ID/g)
# Format: ADME, organism-based
# Set-up: dose 5 mg/kg, route intravenous
# experimental-parameters: read-out: Drug uptake
measured-metric: tissue uptake at 0.25 h (%ID/g)
State just the number; it will be interpreted in %ID/g.

**Query** Find the recorded tissue uptake at 0.25 h belonging to [11CH3]Oc1ncccc1-c1cccc2c(N)c3c(nc12)CN(C1CCC1)C3=O and report it.
**Result** 0.1

====

# test-description: Metabolic stability of the compound in Sprague-Dawley rat plasma assessed as compound remaining at 37 MBq, iv measured after 15 mins
# Type: ADME, organism-based
# experimental-parameters: read-out: Stability
measured-metric: remaining at 0.25 h
Dear colleague, please send the value followed by its unit.

**Query** Find the recorded remaining at 0.25 h belonging to [11CH3]Oc1ncccc1-c1cccc2c(N)c3c(nc12)CN(C1CCC1)C3=O and report it.
**Result** 71%

Numbers sourced from ChEMBL document CHEMBL2057083.
